SYSTEM: T1, Recombinant human CD40L (human, UniProt P29965 108-261, limits assumed)
T1 construct: also called CD40 ligand
T1 sequence (looked up): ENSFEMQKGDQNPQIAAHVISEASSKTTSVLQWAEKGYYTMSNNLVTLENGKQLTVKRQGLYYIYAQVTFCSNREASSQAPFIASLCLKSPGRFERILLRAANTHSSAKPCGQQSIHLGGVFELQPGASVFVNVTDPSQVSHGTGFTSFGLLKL
ASSAY_INFO: CD40L/CD40-Fc receptor binding assay;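 also: plate assay with coated human CD40-Fc, bound ligand detected via HRP anti-biotin antibody and TMB, OD at 450 nm, lower signal indicates stronger inhibition by dAb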
MEASUREMENT_NAME: binding result

>>> value_measured("DOM.121 (other, VH dAb) VH: EVQLLESGGGLVQPGGSLRLSCAASGFTFELYRMSWVRQAPGKGLEWVSEISGSGFPTYYADSVKGRFTISRDNSKNTLYLQMNSLRAEDTAVYYCAKSLHDKTQHHQEFDYWGQGTLVTVSS")
"binds"
>>> value_measured("DOM.101 (other, Vk dAb) VL: DIQMTQSPSSLSASVGDRVTITCRASQAIGHRLRWYQQKPGKAPKLLIYHRSKLQSGVPSRFSGSGSGTDFTLTISSLQPEDFATYYCQQVALFPYTFGQGTKVEIKR")
"binds"
